Endpoint: pIC50. System: Amyloid-beta precursor protein (Homo sapiens, UniProt P05067). Items follow.
Sequence (P05067 whole entry): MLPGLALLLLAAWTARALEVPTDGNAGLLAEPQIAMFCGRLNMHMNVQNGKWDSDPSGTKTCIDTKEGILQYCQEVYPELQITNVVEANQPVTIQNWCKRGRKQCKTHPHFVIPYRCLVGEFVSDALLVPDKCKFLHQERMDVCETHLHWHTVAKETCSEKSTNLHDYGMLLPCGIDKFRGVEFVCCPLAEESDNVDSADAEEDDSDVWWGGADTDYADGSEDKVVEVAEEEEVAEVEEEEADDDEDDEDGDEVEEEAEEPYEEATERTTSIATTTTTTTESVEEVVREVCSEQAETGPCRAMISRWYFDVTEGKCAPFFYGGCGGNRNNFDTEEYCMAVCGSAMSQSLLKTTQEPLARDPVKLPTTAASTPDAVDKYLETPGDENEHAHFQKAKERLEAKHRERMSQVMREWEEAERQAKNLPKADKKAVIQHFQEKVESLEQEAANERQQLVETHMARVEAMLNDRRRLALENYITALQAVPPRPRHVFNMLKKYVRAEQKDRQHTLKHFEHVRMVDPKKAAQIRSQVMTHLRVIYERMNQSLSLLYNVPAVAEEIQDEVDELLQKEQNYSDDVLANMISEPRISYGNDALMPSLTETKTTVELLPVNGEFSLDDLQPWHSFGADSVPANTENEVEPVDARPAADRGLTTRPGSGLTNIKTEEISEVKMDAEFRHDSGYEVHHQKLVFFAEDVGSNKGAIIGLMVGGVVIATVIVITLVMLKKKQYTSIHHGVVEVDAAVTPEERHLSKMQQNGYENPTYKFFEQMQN
Would you please state pIC50, meaning minus log10 of the concentration in mol/L, as a bare number?

# count of solved cases: 3
SMILES TEXT: O=c1cc(-c2ccccc2)oc2cc(OCCN3CCN(CCCNc4c5c(nc6ccccc46)CCCC5)CC3)ccc12
OBSERVATION TYPE: pIC50
RECORDED NUMBER: 5.01
--
SMILES TEXT: O=c1cc(-c2ccccc2)oc2cc(OCCCCCN3CCN(CCNc4c5c(nc6ccccc46)CCCC5)CC3)ccc12
OBSERVATION TYPE: pIC50
RECORDED NUMBER: 4.89
--
SMILES TEXT: COc1cc(OCCCN2CCN(CCCNc3c4c(nc5ccccc35)CCCC4)CC2)cc2oc(-c3ccccc3)cc(=O)c12
OBSERVATION TYPE: pIC50
RECORDED NUMBER: 5.02

Name the reported pIC50 value associated with the compound O=c1cc(-c2ccccc2)oc2cc(OCCCN3CCN(CCNc4c5c(nc6ccccc46)CCCC5)CC3)ccc12 4.86

* * *

ASSAYED TARGET: Amyloid-beta precursor protein (Homo sapiens, UniProt P05067)
PROTOCOL DETAILS: Inhibition of amyloid beta (1 to 42) (unknown origin) self-induced aggregation at 20 uM after 48 hrs by thioflavin T fluorescence assay relative to control
The following molecules are shown together with reported inhibition values.
# unit: % | format: bare number

Study these solved cases before continuing.
MOLECULE: O=c1cc(-c2ccccc2)oc2cc(OCCCN3CCN(CCNc4c5c(nc6ccccc46)CCCC5)CC3)ccc12
UNIT STRING: %
RECORDED NUMBER: 59.1
--
MOLECULE: Nc1ccc(-c2cc(=O)c3ccc(OCCCN4CCN(CCCNc5c6c(nc7ccccc57)CCCC6)CC4)cc3o2)cc1
UNIT STRING: %
RECORDED NUMBER: 9
--
MOLECULE: O=c1cc(-c2ccc([N+](=O)[O-])cc2)oc2cc(OCCCN3CCN(CCCNc4c5c(nc6ccccc46)CCCC5)CC3)ccc12
UNIT STRING: %
RECORDED NUMBER: 61.1
--
MOLECULE: COc1cc(OCCCN2CCN(CCCNc3c4c(nc5ccccc35)CCCC4)CC2)cc2oc(-c3ccccc3)cc(=O)c12
UNIT STRING: %
RECORDED NUMBER: 68.7
--
MOLECULE: O=c1cc(-c2ccccc2)oc2cc(OCCCN3CCN(CCCNc4c5c(nc6ccccc46)CCCC5)CC3)cc(O)c12
UNIT STRING: %
RECORDED NUMBER: 79.1

Fill in the blank: the reported inhibition of O=c1cc(-c2ccccc2)oc2cc(OCCCN3CCN(CCCNc4c5c(nc6ccccc46)CCCC5)CC3)ccc12 is ____. 58

Quick one: O=c1cc(-c2ccccc2)oc2cc(OCCCCCN3CCN(CCCNc4c5c(nc6ccccc46)CCCC5)CC3)ccc12 62.5

Also, O=c1cc(-c2ccccc2)oc2cc(OCCCCN3CCN(CCCNc4c5c(nc6ccccc46)CCCC5)CC3)ccc12 please. 53.4

* * *

ASSAYED TARGET: UniProt P05067
PROTOCOL DETAILS: Inhibition of amyloid beta (1 to 42) (unknown origin) self-induced aggregation at 20 uM after 48 hrs by thioflavin T fluorescence assay relative to control
Binary call on inhibition: Fulfilled from 60% upward, Not fulfilled beneath that.

Example cases with answers are listed next.
COMPOUND: Cc1ccc(-c2cc(=O)c3ccc(OCCCN4CCN(CCCNc5c6c(nc7ccccc57)CCCC6)CC4)cc3o2)cc1
LABEL: Not fulfilled
--
COMPOUND: O=c1cc(-c2ccc(Cl)cc2)oc2cc(OCCCN3CCN(CCCNc4c5c(nc6ccccc46)CCCC5)CC3)ccc12
LABEL: Not fulfilled
--
COMPOUND: O=c1cc(-c2ccccc2)oc2cc(O)ccc12 [7-HYDROXYFLAVONE]
LABEL: Not fulfilled
--
COMPOUND: O=c1cc(-c2ccccc2)oc2cc(OCCN3CCN(CCNc4c5c(nc6ccccc46)CCCC5)CC3)ccc12
LABEL: Not fulfilled
--
COMPOUND: O=c1ccoc2cc(OCCCN3CCN(CCCNc4c5c(nc6ccccc46)CCCC5)CC3)ccc12
LABEL: Fulfilled

Exam item: decide whether the reported inhibition for O=c1cc(-c2ccccc2)oc2cc(OCCN3CCN(CCCNc4c5c(nc6ccccc46)CCCC5)CC3)ccc12 is at least 60%. Fulfilled

Here is the next compound: O=c1cc(-c2ccccc2)oc2cc(OCCCCCN3CCN(CCNc4c5c(nc6ccccc46)CCCC5)CC3)ccc12 Fulfilled

Request: COc1ccc(-c2cc(=O)c3ccc(OCCCN4CCN(CCCNc5c6c(nc7ccccc57)CCCC6)CC4)cc3o2)cc1 Not fulfilled

Do the same for O=c1cc(-c2ccccc2)oc2cc(OCCCCCCN3CCN(CCNc4c5c(nc6ccccc46)CCCC5)CC3)ccc12 please Fulfilled

Subsequent entry: O=c1ccoc2cc(OCCCN3CCN(CCCNc4c5c(nc6ccccc46)CCCC5)CC3)cc(O)c12 Fulfilled
